// data source = patent EP4644396A1

# experimental.target: human TLR7 (Homo sapiens, UniProt Q9NYK1)
# Sequence (Q9NYK1 27-1049): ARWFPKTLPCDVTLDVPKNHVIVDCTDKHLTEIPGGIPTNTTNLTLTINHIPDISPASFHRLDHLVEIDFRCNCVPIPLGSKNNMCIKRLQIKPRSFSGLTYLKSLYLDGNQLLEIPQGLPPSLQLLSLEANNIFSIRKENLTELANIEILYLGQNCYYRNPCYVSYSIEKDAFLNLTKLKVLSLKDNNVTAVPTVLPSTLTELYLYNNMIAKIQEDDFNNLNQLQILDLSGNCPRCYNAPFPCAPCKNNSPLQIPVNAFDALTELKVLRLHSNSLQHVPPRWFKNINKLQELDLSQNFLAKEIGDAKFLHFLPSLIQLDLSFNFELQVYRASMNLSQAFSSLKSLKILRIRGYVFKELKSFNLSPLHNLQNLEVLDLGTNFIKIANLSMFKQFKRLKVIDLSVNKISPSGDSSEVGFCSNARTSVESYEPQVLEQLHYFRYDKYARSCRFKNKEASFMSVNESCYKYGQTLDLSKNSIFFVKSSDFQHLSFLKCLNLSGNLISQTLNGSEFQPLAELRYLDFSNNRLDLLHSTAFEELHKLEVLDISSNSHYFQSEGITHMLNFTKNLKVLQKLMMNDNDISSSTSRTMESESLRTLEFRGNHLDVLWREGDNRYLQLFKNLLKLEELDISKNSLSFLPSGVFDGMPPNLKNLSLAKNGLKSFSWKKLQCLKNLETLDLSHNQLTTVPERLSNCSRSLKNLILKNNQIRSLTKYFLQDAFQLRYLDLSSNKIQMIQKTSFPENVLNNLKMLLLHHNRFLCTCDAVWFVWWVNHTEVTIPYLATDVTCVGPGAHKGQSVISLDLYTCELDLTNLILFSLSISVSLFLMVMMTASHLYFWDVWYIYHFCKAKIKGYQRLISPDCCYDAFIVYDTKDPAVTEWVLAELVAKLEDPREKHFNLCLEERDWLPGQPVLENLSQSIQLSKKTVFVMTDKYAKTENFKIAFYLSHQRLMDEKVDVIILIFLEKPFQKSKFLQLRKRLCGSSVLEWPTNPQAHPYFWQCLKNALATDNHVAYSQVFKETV
# experiment.description: HEK-Blue hTLR7 SEAP reporter gene inhibition assay
# Type: cell-based
# condition.set: hTLR7 HEK-Blue cells, TLR7 ligand Gardiquimod 10 µM, 20 hours, SEAP by Quanti-blue; class symbols; read-out: HEK-Blue hTLR7 IC50
pIC50: −log10 of the molar value.
endpoint: pIC50

compound	result
C[C@@H]1CN(c2ccc(C#N)n3ncc(F)c23)Cc2c3c(nn21)C(CO)NCC3 (stereo partly shown)	< 7.30
C[C@@H]1CN(c2ccc(C#N)n3ncc(F)c23)Cc2c3c(nn21)CC(N(C)C)CC3 (stereo partly shown)	< 7.30
C[C@@H]1CN(C(=O)CN2Cc3nn4c(c3C[C@@H]2C)CN(c2ccc(C#N)n3ncc(F)c23)C[C@H]4C)C[C@@H](C)N1	> 7.30
C[C@@H]1CN(c2ccc(C#N)n3ncc(F)c23)Cc2c3c(nn21)CN(CC1(C(N)=O)CC1)[C@@H](C)C3	> 7.30
